Assay: Components of the Cytosolic LPS Sensing Pathway: Gene Identification via Genome-wide siRNA Screen
Settings: RAW264.7 macrophages, IL-1a HTRF, actives lie on both sides, screened at 100 nM (by protocol), cells primed 5 h with Pam3CSK4 first
Method: Non-canonical inflammasome activation by cytosolic LPS is a critical component of the host response to Gram-negative bacterial infection, however we lack a comprehensive understanding of the cellular processes that control this pathway. […] Lipofectamine RNAiMAX Transfection Reagent ([…]; Invitrogen) was added in […] serum-free, antibiotic-free media to plate wells using a Thermo Scientific Matrix WellMate and Microplate Stacker. […] The plates were read on an EnVision plate reader (PerkinElmer). […]
Out of some 53,000 sequences screened, about 3,700 (7%) were called active.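 Rule for the calls: active = gene knockdowns whose robust z-score for IL-1 alpha signal is at least 2 or at most -2, so actives lie on both sides; inactive = the rest.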 The entries come from a sample that favours actives as a whole.
API: response.call in active, inactive

Past entries and their recorded results:
- SEQUENCE: "GGACAUCCAGACCAAUGUCTT against Psmd8"
  QUALITATIVE_LABEL: "inactive"
- SEQUENCE: "CCAUUGGAUCCAUUCCUAUTT against Plcd3"
  QUALITATIVE_LABEL: "inactive"
- SEQUENCE: "GGACAAUUACAACACUCAATT against Ablim3"
  QUALITATIVE_LABEL: "inactive"

Switching to the query record.
**Q:** Assay result, entry GGUGACCAGCUCCAUUUCUTT against Ccn5 — outcome?
**A:** active

---

assay: Components of the Cytosolic LPS Sensing Pathway: Gene Identification via Genome-wide siRNA Screen; details: RAW264.7 macrophages, IL-1a HTRF, actives lie on both sides, screened at 100 nM (by protocol), cells primed 5 h with Pam3CSK4 first;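 note: robust z of the log signal after scaling to non-targeting control siRNA wells of the plate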
The campaign covered roughly 53,000 sequences. About 3,700 (7%) were called active. This excerpt belongs to a sample that is enriched for actives.
Listing: z-score of selected sequences
Simply state the number, no unit and no words.

- SEQUENCE: "GGCUAUCUCGUAUUCUGAUTT against Olfr985"
  z-score: -1.62
- SEQUENCE: "GGUUGUGAAACGAUGCCCUTT against Trp63"
  z-score: -0.512
- SEQUENCE: "CCAUGCUUCCCUUCAACAUTT against Adcy2"
  z-score: 2.64
- SEQUENCE: "CCCAGAAGACCCGAACUUUTT against E130006D01Rik"
  z-score: 0.378

**Q:** Return reported z-score. Input sequence: CCUUAGGAUCGUCUUAUUATT against Zic2
**A:** 0.619

**Q:** Identify z-score associated with the sequence CCUUAUCUCUACCAUCGGUTT against Hyal2
**A:** 0.0745

**Q:** Note down z-score recorded for GGUUUGGUGUCAGGUGACATT against Olfr1181
**A:** -2.05

**Q:** Input GCAGAGUGACUUUGAAGCGTT against Klf10 , output reported z-score.
**A:** 0.844

**Q:** // fetch z-score given entry AGCAGAAAAAGGAAGGCCATT against Xlr3c
**A:** 0.733

**Q:** Give the reported value of z-score for this record: CAAAAAUAUCUACAGAGUCTT against Olfr494
**A:** 0.207

---

experiment: Components of the Cytosolic LPS Sensing Pathway: Gene Identification via Genome-wide siRNA Screen; conditions: RAW264.7 macrophages, IL-1a HTRF, actives lie on both sides, screened at 100 nM (by protocol), cells primed 5 h with Pam3CSK4 first;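 note: robust z of the log signal after scaling to non-targeting control siRNA wells of the plate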
Among all 53,000 sequences or so, about 3,700 (7%) were called active. Many of the other results were omitted from the sample, so actives are more common in it than they were.
Rule: z-score below -0.1 gives true, anything at or above gives false.

Worked examples, 5 sequences total:
- SEQUENCE: "GGUUAAAGUGUAUUUACAGTT against Fkbp14"
  QUALITATIVE_LABEL: "false"
- SEQUENCE: "GCCUAUACUAUAGAAUUACTT against Sgsm2"
  QUALITATIVE_LABEL: "false"
- SEQUENCE: "GGUCCUCUAAAGAAUAAAGTT against Cela3b"
  QUALITATIVE_LABEL: "false"
- SEQUENCE: "GCUGUUCUAUCAGACCUUUTT against Cyp2b10"
  QUALITATIVE_LABEL: "true"
- SEQUENCE: "GCUGACCUUCAUUCAUAUATT against Vmn1r27"
  QUALITATIVE_LABEL: "true"

With those in mind, consider the next sequence.
**Q:** Record GGGCUGUUAUUUCAAGAAATT against Galnt13 : is its z-score strictly below -0.1?
**A:** true

---

experiment: Components of the Cytosolic LPS Sensing Pathway: Gene Identification via Genome-wide siRNA Screen; settings: RAW264.7 macrophages, IL-1a HTRF, actives lie on both sides, screened at 100 nM (by protocol), cells primed 5 h with Pam3CSK4 first;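 note: robust z of the log signal after scaling to non-targeting control siRNA wells of the plate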
Among all 53,000 sequences or so, about 3,700 (7%) were called active. Many of the other results were omitted from the sample, so actives are more common in it than they were.
Listing of recorded z-score by entry.

Solved entries (count: 5):
- SEQUENCE: "GGAAGUUUGAGUUUGAGCUTT against Fbxl21"
  z-score: "1.79 (inactive)"
- SEQUENCE: "CCAUAGCAGGGAAGAUUUUTT against Kcnd2"
  z-score: "3.78 (active)"
- SEQUENCE: "GCCAUGCACUAACUUGAAUTT against Adamts4"
  z-score: "-0.0391 (inactive)"
- SEQUENCE: "GGAGAAGUCAUGAAACAAATT against Prkn"
  z-score: "0.349 (inactive)"
- SEQUENCE: "GGCAGAGUAUGAGUUUGACTT against Camk1"
  z-score: "0.699 (inactive)"

**Q:** Give recorded z-score. GGAAUGUUUGGUGCUAUGATT against Flvcr2
**A:** 3.4 (active)

**Q:** Respond only with z-score recorded for CCAUCUCUCCAAAGGGCUGTT against Olfr32
**A:** 0.056 (inactive)

**Q:** Supply reported z-score belonging to this sequence: GCCAUGAUGCAUUAUGUAUTT against Haglr
**A:** -0.331 (inactive)

**Q:** Answer with reported z-score of GGCUACCAUAGGUUUUAAUTT against Serinc4
**A:** 0.946 (inactive)

**Q:** Return reported z-score. Input sequence: GGAACUUCAUCCAAACUGATT against Ap4m1
**A:** -0.12 (inactive)

**Q:** Output measured z-score for this item: GGCCAAACUGGAUUACUUATT against Tmprss11c
**A:** 1.26 (inactive)

**Q:** Please give measured z-score of the following entry: GGACCACAGAAGUUCUCAUTT against Pira2
**A:** -2.88 (active)

**Q:** Let me know recorded z-score for GGAGGCUUAUCCUAAAAAGTT against 6330444E15Rik , thanks.
**A:** -1.02 (inactive)

**Q:** For the sequence GGAGAUGAAAUCUACAAAUTT against Igfbp1 , report z-score.
**A:** -0.592 (inactive)

---

assay: Components of the Cytosolic LPS Sensing Pathway: Gene Identification via Genome-wide siRNA Screen; conditions: RAW264.7 macrophages, IL-1a HTRF, actives lie on both sides, screened at 100 nM (by protocol), cells primed 5 h with Pam3CSK4 first;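 note: robust z of the log signal after scaling to non-targeting control siRNA wells of the plate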
The whole screen tested about 53,000 sequences, of which about 3,700 (7%) were called active. Only a selection was taken, and actives are over-represented in it overall.
MEASURED_PROPERTY: z-score
Reply with just the number.

Solved entries:
- SEQUENCE: "GCUCCAACAAGGCAUAAAATT against Dis3"
  RECORDED_RESULT: -1.71
- SEQUENCE: "GCAUCUGGGACAUUUAGAGTT against Cd200r3"
  RECORDED_RESULT: -1.08
- SEQUENCE: "GCGGUUUUGUGUCAGGGACTT against 4833408A19Rik"
  RECORDED_RESULT: -0.682
- SEQUENCE: "GGGCUGAAUAAGGAACUGUTT against Nudt16l2"
  RECORDED_RESULT: 1.46
- SEQUENCE: "GGUUGAUUCCAACGACAUCTT against Tinagl1"
  RECORDED_RESULT: -0.173
- SEQUENCE: "GGCAUAAGAAAAUGGACCCTT against Fhit"
  RECORDED_RESULT: 2.04

**Q:** Identify the reported z-score for the following entry. CGAUCGAAUCCUUAAGUACTT against Ttll1
**A:** -0.0193

**Q:** Output measured z-score for this item: GCCUAAAGCUUUUCUACAATT against Mlph
**A:** 0.161

**Q:** Look up and report measured z-score for this entry: GGAACCUACUGCUACAUCATT against Sftpc
**A:** 2.24

**Q:** Specify reported z-score for the sequence shown: CCAAGGACUCUCAUCUGUUTT against Zfp474
**A:** -0.712

**Q:** Answer with the recorded z-score of GCUUUCAGCUAUUGGACCCTT against Kl only.
**A:** 0.0919
